tested on: SK-MEL-28 melanoma; assay: NCI tumour cell line growth inhibition, 48 h
Measured property: log10(TGI) (log10 of the value in µM)
Units before log transform: µM; reported quantity: TGI; transform: log10.

> print(dat)
                                   compound        study.system  result.value
1  C=C1C(=O)O[C@H]2[C@H]1CC/C(COC(=O)c1cccnc1N)=C\CC[C@@]1(C)O[C@@H]21  SK-MEL-28 melanoma          0.95
2  CN(C)NC1=C([N+](=O)[O-])C=NN(c2ccccc2)C1  SK-MEL-28 melanoma          0.51
3  COc1cc(S(=O)(=O)Nc2ccc(-c3csc(N4C(=O)C(C)SC4c4cccs4)n3)cc2)ccc1Cl (stereo not given)  SK-MEL-28 melanoma          1.84
4    COc1cccc(Nc2ncnc3cc(NC(=O)CCl)ccc23)c1  SK-MEL-28 melanoma          0.51
5  CN1CCC2(c3ccccc3)CC(=O)/C(=C/c3ccc(Cl)c(Cl)c3)C1C2 (stereo not given)  SK-MEL-28 melanoma          0.75
6  CCN(CC)C1Oc2cc3c(cc2C(c2cc(OC)c(O)c(OC)c2)C1C)OCO3 (stereo not given)  SK-MEL-28 melanoma          1.65

# input # return recorded log10(TGI) for entry Cc1c(C(=O)c2ccccc2)[n+](=O)c2cc(Cl)c(Cl)cc2n1[O-]
# output 1.46

# input # return recorded log10(TGI) for entry CN(C)[C@@H]1C(=O)C(C(=O)NCNc2nc3n[nH]nc3c(=O)[nH]2)=C(O)[C@@]2(O)C(=O)C3=C(O)c4c(O)cccc4[C@@](C)(O)[C@H]3C[C@@H]12
# output 1.34
